Where these numbers come from: ChEMBL document CHEMBL2010709

Test: Inhibition of Thermus aquaticus DNA polymerase assessed as inhibition of incorporation of dTTP into poly(dA)/oligo(dT)18 after 60 mins at 74 degC
Result type: IC50

These recorded examples may help you get a feel for the data.
1. C/C=C/C1=CC2=CC(=O)[C@@](C)(OC(=O)c3c(C)cc(O)cc3O)[C@@H](O)[C@@H]2CO1 [PINOPHILIN A]: > 200 µM
2. Cc1cc(O)cc(O)c1C(=O)O[C@H]1[C@@H]2COC(/C=C/CO)=CC2=CC(=O)[C@@]1(C)O [PINOPHILIN B]: > 200 µM

In the following, a different compound is considered.
Prompt: Quickly give me recorded IC50 for `C/C=C/C1=CC2=CC(=O)[C@@](C)(O)[C@@H](OC(=O)c3c(C)cc(O)cc3O)[C@@H]2CO1`
Response: > 200 µM
